Just for reference, patent US20120094909A1 is where these values come from.

# tgt: T1, human PCSK9 (proprotein convertase subtilisin kexin type 9) (human, UniProt Q8NBP7 31-692)
# T1 construct: immobilized directly (ProteOn), biotinylated (Octet) or in solution, according to the assay; also called hPCSK9; PCSK9-AF647 (labelled form)
# assay.overview: PCSK9:EGFA FRET, competitor EGFA peptide
recorded.metric: EC50 (nM)

P = 1813E02 (designed binder) MGVSDVPRDLEVVAATPTSLLISWSPPANGYGYYRITYGETGGNSPVQEFTVPVGRGTATISGLKPGVDYTITVYAVEYTYKGSGYYHRPISINYRTEIDKPSQHHHHHH
Q = 2451F03 (designed binder) MGVSDVPRDLEVVAATPTSLLISWDPPAEGYGYYRITYGETGGNSPVQEFTVPVSKGTATISGLKPGVDYTITVYAVEFNFPGSGYYHRPISINYRTEIDKPSQHHHHHH
Problem: Of P and Q , which carries the smaller reported EC50 figure? Refer to your chosen item by its label in the answer.
Result: P
(P: 1.3 nM, Q: 2.8 nM)
